Hello, the source for this data is ChEMBL document CHEMBL3526142, in case you need it.

- Procedure Text: Clearance in ICR mouse at 15 mg/kg, iv by LC-MS/MS analysis
- Type: ADME, organism-based
- Set-up: dose 15 mg/kg, route intravenous
- Cond: in vivo
Readout Label: clearance
Entry format: amount then unit.

Record COc1cc(C(=O)c2cccc(-c3cc4ccccc4[nH]3)c2)cc(OC)c1OC , field clearance: 19 mL/min/kg

====

- Procedure Text: Cmax in ICR mouse at 1 mg/kg, ip by LC-MS/MS analysis
- Type: ADME, organism-based
- Design: dose 1 mg/kg, route intraperitoneal
- Cond: in vivo
Readout Label: Cmax

In plain terms, COc1cc(C(=O)c2cccc(-c3cc4ccccc4[nH]3)c2)cc(OC)c1OC has a documented Cmax of 0.25 µg/mL

====

- Procedure Text: Volume of distribution at steady state in ICR mouse at 5 mg/kg, iv by LC-MS/MS analysis
- Format: ADME, organism-based
- Parameters: dose 5 mg/kg, route intravenous
- Cond: in vivo, read-out: Vdss
Readout Label: Vd (L/kg)
Give your result in L/kg as a bare value.

Please fill in: Vd reported for COc1cc(C(=O)c2cccc(-c3cc4ccccc4[nH]3)c2)cc(OC)c1OC = 3.8

====

- Procedure Text: Terminal half life in ICR mouse at 1 mg/kg, iv by LC-MS/MS analysis
- Assay type: ADME, organism-based
- Parameters: dose 1 mg/kg, route intravenous
- Cond: in vivo, read-out: beta t1/2 (converted)
Readout Label: half-life

Lab note: COc1cc(C(=O)c2cccc(-c3cc4ccccc4[nH]3)c2)cc(OC)c1OC gave half-life of 7 h

====

- Procedure Text: AUC (infinity) in ICR mouse at 15 mg/kg, iv by LC-MS/MS analysis
- Format: ADME, organism-based
- Set-up: time infinity, dose 15 mg/kg, route intravenous
- Cond: plasma
Readout Label: AUC(0-inf) (ng·h/mL)
Report only the number, with the unit ng·h/mL understood.

Per the records, this compound ( COc1cc(C(=O)c2cccc(-c3cc4ccccc4[nH]3)c2)cc(OC)c1OC ) has AUC(0-inf) equal to 13400

====

- Procedure Text: Terminal half life in ICR mouse at 5 mg/kg, po via gavage by LC-MS/MS analysis
- Type: ADME, organism-based
- Parameters: dose 5 mg/kg, route oral
- Cond: in vivo, read-out: beta t1/2 (converted)
Readout Label: half-life (h)
A number alone suffices; assume h.

For this compound ( COc1cc(C(=O)c2cccc(-c3cc4ccccc4[nH]3)c2)cc(OC)c1OC ), measured half-life is 7.7

====

- Procedure Text: Terminal half life in ICR mouse at 15 mg/kg, po via gavage by LC-MS/MS analysis
- Type: ADME, organism-based
- Parameters: dose 15 mg/kg, route oral
- Cond: in vivo, read-out: beta t1/2 (converted)
Readout Label: half-life (h)
Numbers only here, please. The scale is h.

The reported value for COc1cc(C(=O)c2cccc(-c3cc4ccccc4[nH]3)c2)cc(OC)c1OC in terms of half-life is 7.9

====

- Procedure Text: Metabolic stability in monkey liver microsomes assessed as half life during phase 1 and 2 at 0.5 uM by LC-MS/MS analysis in presence of 3 mM NADPH and […] UDPGA
- Format: ADME, Macaca mulatta
- Cond: rhesus monkey, read-out: alphat1/2
Readout Label: half-life at 0.5 µM (min)
Just the number please, in min, no unit attached.

// half-life at 0.5 µM lookup, compound = COc1cc(C(=O)c2cccc(-c3cc4ccccc4[nH]3)c2)cc(OC)c1OC , result: 11
